Test system: CS1 (Chondrosarcoma)
assay summary: combination Emax (second highest fraction inhibited in the dose matrix, 72 h); higher = more inhibition; extreme values may be limits of the assay
measurement kind: combination Emax

{"compound": "COc1cccc(OCCCN)c1-c1cc(Nc2cnc(C#N)cn2)n[nH]1 [Prexasertib] + C[C@@H]1COCCN1C2=NC(=NC(=C2)C3(CC3)[S@](=N)(=O)C)C4=C5C=CNC5=NC=C4 [AZD6738] (first compound max 1 µM, 7x7, partner max 10 µM)", "measurement kind": "combination Emax", "observed value": 0.714}
{"compound": "CS(=O)(=O)CCNCc1ccc(-c2ccc3ncnc(Nc4ccc(OCc5cccc(F)c5)c(Cl)c4)c3c2)o1 [Lapatinib] + C[C@@H](Oc1cc(-c2cnn(C3CCNCC3)c2)cnc1N)c1c(Cl)ccc(F)c1Cl [Crizotinib] (first compound max 10 µM, 7x7, partner max 10 µM)", "measurement kind": "combination Emax", "observed value": 0.797}
{"compound": "COc1cccc2c1C(=O)c1c(O)c3c(c(O)c1C2=O)C[C@@](O)(C(=O)CO)C[C@@H]3O[C@H]1C[C@H](N)[C@H](O)[C@H](C)O1 [Doxorubicin] + Cc1cc2ncnn2cc1Nc1ncc2c(n1)n(C1CCOCC1)c(=O)n2C [AZD7648] (first compound max 1 µM, 7x7, partner max 10 µM)", "measurement kind": "combination Emax", "observed value": 0.772}
{"compound": "Cc1cc2ncnn2cc1Nc1ncc2c(n1)n(C1CCOCC1)c(=O)n2C [AZD7648] + CN(C)CCCOc1ccc(-c2ccc3ncc4c(c3c2)n(C2CCOCC2)c(=O)n4C)cn1 [AZD0156] (first compound max 10 µM, 7x7, partner max 1 µM)", "measurement kind": "combination Emax", "observed value": 0.306}

* * *

Test system: MSTO-211H (Mesothelioma);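 also: after 72 h of two-drug dosing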
assay summary: Bliss excess, mean over the matrix (fraction); higher = more synergy
measurement kind: Bliss excess

{"compound": "NC1(C(=O)N[C@@H](CCO)c2ccc(Cl)cc2)CCN(c2ncnc3[nH]ccc23)CC1 [Capivasertib] + CC(=O)c1c(C)c2cnc(Nc3ccc(N4CCNCC4)cn3)nc2n(C2CCCC2)c1=O [Palbociclib] (first compound max 10 µM, 7x7, partner max 10 µM)", "measurement kind": "Bliss excess", "observed value": -0.0547}
{"compound": "CN(CCO)CC[C@H](CSc1ccccc1)Nc1ccc(S(=O)(=O)NC(=O)c2ccc(N3CCC([C@@H](O)c4ccccc4-c4ccc(Cl)cc4)CC3)cc2)cc1S(=O)(=O)C(F)(F)F [AZD4320] + C[C@@H](Nc1cc(F)cc(F)c1)c1cc(C(=O)N(C)C)cc2c(=O)cc(N3CCOCC3)oc12 [AZD8186] (first compound max 1 µM, 7x7, partner max 3 µM)", "measurement kind": "Bliss excess", "observed value": 0.0841}
{"compound": "NC1(C(=O)N[C@@H](CCO)c2ccc(Cl)cc2)CCN(c2ncnc3[nH]ccc23)CC1 [Capivasertib] + Cn1cnc2c(F)c(Nc3ccc(Br)cc3Cl)c(C(=O)NOCCO)cc21 [Selumetinib] (first compound max 10 µM, 7x7, partner max 10 µM)", "measurement kind": "Bliss excess", "observed value": 0.0663}
{"compound": "N#Cc1cnc(Nc2cc(NC[C@H]3CNCCO3)c(C(F)(F)F)cn2)cn1 [SRA737] + Nc1ccn([C@@H]2O[C@H](CO)[C@@H](O)C2(F)F)c(=O)n1 [Gemcitabine] (first compound max 10 µM, 7x7, partner max 0.3 µM)", "measurement kind": "Bliss excess", "observed value": -0.0082}
{"compound": "CN(CCO)CC[C@H](CSc1ccccc1)Nc1ccc(S(=O)(=O)NC(=O)c2ccc(N3CCC([C@@H](O)c4ccccc4-c4ccc(Cl)cc4)CC3)cc2)cc1S(=O)(=O)C(F)(F)F [AZD4320] + CC(=O)O[C@H]1C(=O)[C@@]2(C)[C@H]([C@H](OC(=O)c3ccccc3)[C@]3(O)C[C@H](OC(=O)[C@H](O)[C@@H](NC(=O)c4ccccc4)c4ccccc4)C(C)=C1C3(C)C)[C@]1(OC(C)=O)CO[C@@H]1C[C@@H]2O [Paclitaxel] (first compound max 1 µM, 7x7, partner max 3 µM)", "measurement kind": "Bliss excess", "observed value": 0.105}
{"compound": "CN(CCO)CC[C@H](CSc1ccccc1)Nc1ccc(S(=O)(=O)NC(=O)c2ccc(N3CCC([C@@H](O)c4ccccc4-c4ccc(Cl)cc4)CC3)cc2)cc1S(=O)(=O)C(F)(F)F [AZD4320] + C=CCn1c(=O)c2cnc(Nc3ccc(N4CCN(C)CC4)cc3)nc2n1-c1cccc(C(C)(C)O)n1 [AZD1775] (first compound max 1 µM, partner max 1 µM)", "measurement kind": "Bliss excess", "observed value": 0.0585}
{"compound": "CC(=O)c1c(C)c2cnc(Nc3ccc(N4CCNCC4)cn3)nc2n(C2CCCC2)c1=O [Palbociclib] + Cn1cnc2c(F)c(Nc3ccc(Br)cc3Cl)c(C(=O)NOCCO)cc21 [Selumetinib] (first compound max 10 µM, 7x7, partner max 10 µM)", "measurement kind": "Bliss excess", "observed value": -0.0714}
{"compound": "C=CCn1c(=O)c2cnc(Nc3ccc(N4CCN(C)CC4)cc3)nc2n1-c1cccc(C(C)(C)O)n1 [AZD1775] + O=C(c1cc(Cc2n[nH]c(=O)c3ccccc23)ccc1F)N1CCN(C(=O)C2CC2)CC1 [Olaparib] (first compound max 1 µM, partner max 10 µM)", "measurement kind": "Bliss excess", "observed value": -0.0203}
{"compound": "COc1nnc2ccc(N3CCC(c4ccc(OCCN5CCN(C)C(=O)[C@H]5C)cc4)CC3)nn12 [AZD5153] + CCN(CCO)CCCOc1ccc2c(Nc3cc(CC(=O)Nc4cccc(F)c4)[nH]n3)ncnc2c1 [AZD2811] (first compound max 1 µM, 7x7, partner max 1 µM)", "measurement kind": "Bliss excess", "observed value": -0.0182}
{"compound": "COc1nnc2ccc(N3CCC(c4ccc(OCCN5CCN(C)C(=O)[C@H]5C)cc4)CC3)nn12 [AZD5153] + CC1(C)CCC(CN2CCN(c3ccc(C(=O)NS(=O)(=O)c4ccc(NCC5CCOCC5)c([N+](=O)[O-])c4)c(Oc4cnc5[nH]ccc5c4)c3)CC2)=C(c2ccc(Cl)cc2)C1 [Venetoclax] (first compound max 1 µM, 7x7, partner max 1 µM)", "measurement kind": "Bliss excess", "observed value": -0.111}
{"compound": "Cc1cc2ncnn2cc1Nc1ncc2c(n1)n(C1CCOCC1)c(=O)n2C [AZD7648] + COc1cc([C@@H]2c3cc4c(cc3[C@@H](O[C@@H]3O[C@@H]5CO[C@@H](C)O[C@H]5[C@H](O)[C@H]3O)[C@H]3COC(=O)[C@H]23)OCO4)cc(OC)c1O [Etoposide] (first compound max 10 µM, 7x7, partner max 10 µM)", "measurement kind": "Bliss excess", "observed value": 0.0624}
{"compound": "Cc1c2c(nn1C)CSCc1cc(n(C)n1)CSc1cc(c3ccccc3c1)OCCCc1c(C(=O)O)n(C)c3c-2c(Cl)ccc13 [AZD5991] + C[C@@H](Nc1cc(F)cc(F)c1)c1cc(C(=O)N(C)C)cc2c(=O)cc(N3CCOCC3)oc12 [AZD8186] (first compound max 1 µM, 7x7, partner max 3 µM)", "measurement kind": "Bliss excess", "observed value": -0.0019}

* * *

System: SK-UT-1 (Other Solid Carcinomas)
assay summary: combination Emax (second highest fraction inhibited in the dose matrix, 72 h); higher = more inhibition; extreme values may be limits of the assay
Please note: class 1 applies when combination Emax is 0.5 or greater, and class 0 applies otherwise.

{"compound": "NC1(C(=O)N[C@@H](CCO)c2ccc(Cl)cc2)CCN(c2ncnc3[nH]ccc23)CC1 [Capivasertib] + CC(C)n1c(=O)n(C)c2cnc3cc(F)c(-c4ccc(OCCCN5CCCCC5)nc4)cc3c21 [AZD1390] (first compound max 10 µM, 7x7, partner max 0.3 µM)", "target under test": "SK-UT-1 (Other Solid Carcinomas)", "qualitative label": "class 0"}
{"compound": "N#Cc1cnc(Nc2cc(NC[C@H]3CNCCO3)c(C(F)(F)F)cn2)cn1 [SRA737] + O=c1[nH]cc(F)c(=O)[nH]1 [5-Fluorouracil] (first compound max 10 µM, 7x7, partner max 20 µM)", "target under test": "SK-UT-1 (Other Solid Carcinomas)", "qualitative label": "class 1"}
{"compound": "Cc1c2c(nn1C)CSCc1cc(n(C)n1)CSc1cc(c3ccccc3c1)OCCCc1c(C(=O)O)n(C)c3c-2c(Cl)ccc13 [AZD5991] + CC(=O)O[C@H]1C(=O)[C@@]2(C)[C@H]([C@H](OC(=O)c3ccccc3)[C@]3(O)C[C@H](OC(=O)[C@H](O)[C@@H](NC(=O)c4ccccc4)c4ccccc4)C(C)=C1C3(C)C)[C@]1(OC(C)=O)CO[C@@H]1C[C@@H]2O [Paclitaxel] (first compound max 1 µM, 7x7, partner max 3 µM)", "target under test": "SK-UT-1 (Other Solid Carcinomas)", "qualitative label": "class 1"}
{"compound": "N#Cc1cnc(Nc2cc(NC[C@H]3CNCCO3)c(C(F)(F)F)cn2)cn1 [SRA737] + CCc1c2c(nc3ccc(O)cc13)-c1cc3c(c(=O)n1C2)COC(=O)[C@]3(O)CC [SN-38] (first compound max 10 µM, 7x7, partner max 0.3 µM)", "target under test": "SK-UT-1 (Other Solid Carcinomas)", "qualitative label": "class 1"}
{"compound": "CCN(CCO)CCCOc1ccc2c(Nc3cc(CC(=O)Nc4cccc(F)c4)[nH]n3)ncnc2c1 [AZD2811] + O=C(c1cc(Cc2n[nH]c(=O)c3ccccc23)ccc1F)N1CCN(C(=O)C2CC2)CC1 [Olaparib] (first compound max 1 µM, 7x7, partner max 10 µM)", "target under test": "SK-UT-1 (Other Solid Carcinomas)", "qualitative label": "class 0"}
{"compound": "Cc1c2c(nn1C)CSCc1cc(n(C)n1)CSc1cc(c3ccccc3c1)OCCCc1c(C(=O)O)n(C)c3c-2c(Cl)ccc13 [AZD5991] + CS(=O)(=O)CCNCc1ccc(-c2ccc3ncnc(Nc4ccc(OCc5cccc(F)c5)c(Cl)c4)c3c2)o1 [Lapatinib] (first compound max 1 µM, 7x7, partner max 10 µM)", "target under test": "SK-UT-1 (Other Solid Carcinomas)", "qualitative label": "class 0"}
{"compound": "COc1nnc2ccc(N3CCC(c4ccc(OCCN5CCN(C)C(=O)[C@H]5C)cc4)CC3)nn12 [AZD5153] + CC1(C)CCC(CN2CCN(c3ccc(C(=O)NS(=O)(=O)c4ccc(NCC5CCOCC5)c([N+](=O)[O-])c4)c(Oc4cnc5[nH]ccc5c4)c3)CC2)=C(c2ccc(Cl)cc2)C1 [Venetoclax] (first compound max 1 µM, 7x7, partner max 1 µM)", "target under test": "SK-UT-1 (Other Solid Carcinomas)", "qualitative label": "class 1"}
{"compound": "CC1(C)CCC(CN2CCN(c3ccc(C(=O)NS(=O)(=O)c4ccc(NCC5CCOCC5)c([N+](=O)[O-])c4)c(Oc4cnc5[nH]ccc5c4)c3)CC2)=C(c2ccc(Cl)cc2)C1 [Venetoclax] + CN(C)CCCOc1ccc(-c2ccc3ncc4c(c3c2)n(C2CCOCC2)c(=O)n4C)cn1 [AZD0156] (first compound max 1 µM, 7x7, partner max 1 µM)", "target under test": "SK-UT-1 (Other Solid Carcinomas)", "qualitative label": "class 0"}
{"compound": "Cn1cnc2c(F)c(Nc3ccc(Br)cc3Cl)c(C(=O)NOCCO)cc21 [Selumetinib] + CC(C)n1c(=O)n(C)c2cnc3cc(F)c(-c4ccc(OCCCN5CCCCC5)nc4)cc3c21 [AZD1390] (first compound max 10 µM, 7x7, partner max 0.3 µM)", "target under test": "SK-UT-1 (Other Solid Carcinomas)", "qualitative label": "class 0"}
{"compound": "Cc1c2c(nn1C)CSCc1cc(n(C)n1)CSc1cc(c3ccccc3c1)OCCCc1c(C(=O)O)n(C)c3c-2c(Cl)ccc13 [AZD5991] + Cn1cnc2c(F)c(Nc3ccc(Br)cc3Cl)c(C(=O)NOCCO)cc21 [Selumetinib] (first compound max 1 µM, 7x7, partner max 3 µM)", "target under test": "SK-UT-1 (Other Solid Carcinomas)", "qualitative label": "class 0"}
{"compound": "CN(C)CCCOc1ccc(-c2ccc3ncc4c(c3c2)n(C2CCOCC2)c(=O)n4C)cn1 [AZD0156] + C=CCn1c(=O)c2cnc(Nc3ccc(N4CCN(C)CC4)cc3)nc2n1-c1cccc(C(C)(C)O)n1 [AZD1775] (first compound max 1 µM, partner max 1 µM)", "target under test": "SK-UT-1 (Other Solid Carcinomas)", "qualitative label": "class 1"}
{"compound": "Cc1c2c(nn1C)CSCc1cc(n(C)n1)CSc1cc(c3ccccc3c1)OCCCc1c(C(=O)O)n(C)c3c-2c(Cl)ccc13 [AZD5991] + C[C@@H](Nc1cc(F)cc(F)c1)c1cc(C(=O)N(C)C)cc2c(=O)cc(N3CCOCC3)oc12 [AZD8186] (first compound max 1 µM, 7x7, partner max 3 µM)", "target under test": "SK-UT-1 (Other Solid Carcinomas)", "qualitative label": "class 0"}
{"compound": "C=CCn1c(=O)c2cnc(Nc3ccc(N4CCN(C)CC4)cc3)nc2n1-c1cccc(C(C)(C)O)n1 [AZD1775] + CCc1c2c(nc3ccc(O)cc13)-c1cc3c(c(=O)n1C2)COC(=O)[C@]3(O)CC [SN-38] (first compound max 1 µM, partner max 0.3 µM)", "target under test": "SK-UT-1 (Other Solid Carcinomas)", "qualitative label": "class 1"}
